Origin of values: ChEMBL document CHEMBL1130629

- METHOD_NOTES: Compound was evaluated for the rate of clearance in rat upon intravenous administration.
- Type: ADME, organism-based
- ASSAY_SETUP: in vivo
Recorded clearance, one value per entry.
Note: unit mL/min/kg is implicit; provide only the numeric part.

Challenge: clearance for `O=C(NCCCCN1CCC[C@@H]2c3ccccc3CC[C@H]21)c1ccc(-c2ccccc2)cc1` ?
Response given: 46

Challenge: Would you mind doing CCCN(CCCCNC(=O)c1ccc(-c2ccccc2)cc1)C1CCc2c(Cl)cccc2C1 (centres undefined) as well?
Response given: 96

Challenge: Continue with `CS(=O)(=O)Oc1cccc2c1CC[C@@H]1[C@@H]2CCCN1CCCCNC(=O)c1ccc(-c2ccccc2)cc1`
Response given: 61

Challenge: Check `O=C(NCCCCN1CC[C@@H]2c3ccccc3CC[C@@H]21)c1ccc(-c2ccccc2)cc1` too.
Response given: 59
